biological target: T1, hGCGR-hFc (human); test: SPR Biacore T100, 37C, mAb captured, antigen flowed
T1 construct: also called REGN316
T1 sequence (chain, as listed by the source limits assumed): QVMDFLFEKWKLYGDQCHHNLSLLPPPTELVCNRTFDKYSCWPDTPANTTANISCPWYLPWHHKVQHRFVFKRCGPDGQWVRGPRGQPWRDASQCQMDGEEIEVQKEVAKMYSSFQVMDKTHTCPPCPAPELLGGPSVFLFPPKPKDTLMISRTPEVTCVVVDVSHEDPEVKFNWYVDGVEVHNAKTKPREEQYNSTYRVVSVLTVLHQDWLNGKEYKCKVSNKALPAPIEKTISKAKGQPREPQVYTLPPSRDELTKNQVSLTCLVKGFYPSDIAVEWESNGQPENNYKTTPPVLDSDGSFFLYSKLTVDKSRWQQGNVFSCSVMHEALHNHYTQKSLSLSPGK
Measured pKd of individual entries
Please keep in mind that pKd is minus log10 of the molar concentration; only the number is needed.

A selection of reference data follows.
# BINDER, pKd
records = [
    ("H4H1328P (antibody, V domains shown, Fully human anti-GCGR antibody; the controls are called isotype-matched hIgG4) VH: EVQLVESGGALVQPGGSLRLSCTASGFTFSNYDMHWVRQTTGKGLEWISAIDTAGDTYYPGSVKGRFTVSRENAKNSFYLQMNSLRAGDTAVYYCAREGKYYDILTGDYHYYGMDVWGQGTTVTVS VL: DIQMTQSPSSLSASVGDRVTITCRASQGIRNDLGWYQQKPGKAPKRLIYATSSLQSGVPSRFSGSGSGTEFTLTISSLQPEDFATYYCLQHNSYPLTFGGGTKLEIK", 9.91),
    ("H4H1331P (antibody, V domains shown, Fully human anti-GCGR antibody; the controls are called isotype-matched hIgG4) VH: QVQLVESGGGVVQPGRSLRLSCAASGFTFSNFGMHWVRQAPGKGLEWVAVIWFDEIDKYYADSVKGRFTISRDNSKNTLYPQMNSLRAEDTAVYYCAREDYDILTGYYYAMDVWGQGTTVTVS VL: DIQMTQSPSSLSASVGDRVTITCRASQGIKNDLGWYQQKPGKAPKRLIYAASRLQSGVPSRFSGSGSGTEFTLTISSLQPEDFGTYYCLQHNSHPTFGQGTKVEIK", 10.11),
]

Now examine the next entry.
Task: Entry under review: H4H1321P (antibody, V domains shown, Fully human anti-GCGR antibody; the controls are called isotype-matched hIgG4) VH: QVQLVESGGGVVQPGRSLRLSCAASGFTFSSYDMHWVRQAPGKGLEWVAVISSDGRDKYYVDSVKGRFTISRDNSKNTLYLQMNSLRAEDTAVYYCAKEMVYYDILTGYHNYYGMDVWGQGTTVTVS VL: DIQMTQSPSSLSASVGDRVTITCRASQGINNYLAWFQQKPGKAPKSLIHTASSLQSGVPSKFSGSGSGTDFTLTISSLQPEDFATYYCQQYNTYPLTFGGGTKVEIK . Reported pKd?
Result: 10.11
